meta.source: patent US11547697B2

Biological target: p110γ (Homo sapiens (Human), UniProt P48736)
Sequence (P48736 whole entry): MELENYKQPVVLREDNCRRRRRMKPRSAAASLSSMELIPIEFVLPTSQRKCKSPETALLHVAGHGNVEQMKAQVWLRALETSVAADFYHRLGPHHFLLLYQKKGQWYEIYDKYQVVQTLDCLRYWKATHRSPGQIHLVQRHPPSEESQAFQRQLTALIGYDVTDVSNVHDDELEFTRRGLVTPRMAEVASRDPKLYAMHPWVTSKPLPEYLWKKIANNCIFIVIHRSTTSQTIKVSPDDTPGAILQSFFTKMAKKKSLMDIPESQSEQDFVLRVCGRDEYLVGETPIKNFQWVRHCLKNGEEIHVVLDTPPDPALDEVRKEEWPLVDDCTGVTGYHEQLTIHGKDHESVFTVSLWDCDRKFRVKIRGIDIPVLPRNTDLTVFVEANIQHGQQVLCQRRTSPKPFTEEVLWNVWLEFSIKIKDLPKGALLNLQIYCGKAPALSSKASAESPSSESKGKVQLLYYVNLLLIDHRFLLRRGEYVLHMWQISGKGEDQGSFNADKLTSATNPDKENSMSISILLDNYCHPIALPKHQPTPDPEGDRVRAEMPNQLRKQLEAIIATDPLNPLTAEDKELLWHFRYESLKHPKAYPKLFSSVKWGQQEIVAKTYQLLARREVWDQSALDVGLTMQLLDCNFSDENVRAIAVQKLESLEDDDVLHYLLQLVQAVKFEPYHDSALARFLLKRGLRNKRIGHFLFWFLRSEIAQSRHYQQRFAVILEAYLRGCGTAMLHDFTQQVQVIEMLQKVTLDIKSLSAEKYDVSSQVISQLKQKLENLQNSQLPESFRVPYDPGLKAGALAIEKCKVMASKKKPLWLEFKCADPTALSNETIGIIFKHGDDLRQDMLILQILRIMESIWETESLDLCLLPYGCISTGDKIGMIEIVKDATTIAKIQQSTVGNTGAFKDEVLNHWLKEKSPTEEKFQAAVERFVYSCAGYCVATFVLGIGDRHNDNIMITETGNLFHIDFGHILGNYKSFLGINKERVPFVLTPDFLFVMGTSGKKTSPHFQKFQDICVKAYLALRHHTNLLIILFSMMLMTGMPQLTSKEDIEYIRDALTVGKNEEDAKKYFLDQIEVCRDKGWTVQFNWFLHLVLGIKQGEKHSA
Assay: PI 3-Kinase (human) HTRF assay, p110γ
Assay type: biochemical
Conditions: in vitro; read-out: PI3K γ IC50
pIC50: −log10 of the molar value.
property: pIC50

Worked set:
>>> df
                               smiles_entry  result
0  Cc1nccn1C1CN(c2cnc3ccc(-c4ccc5oc(N)nc5c4)cc3n2)C1  > 5.00
1         Nc1nc2cc(-c3ccc4sc(N)nc4c3)ccc2o1  > 6.00
2  Nc1nc2cc(-c3ccc4ncc(N5CCN(C(=O)[C@@H](N)CO)CC5)nc4c3)ccc2o1  > 5.00
3  Nc1nc2cc(-c3ccc4ncc(N5CCC(n6ccnc6)CC5)nc4c3)ccc2o1  > 6.00
4  NC(=O)[C@H]1CCCN1C(=O)C1CN(c2cnc3ccc(-c4ccc5oc(N)nc5c4)cc3n2)C1  > 6.00

Kindly give each listed record's pIC50.
1. CS(=O)(=O)N1CCN(C2CN(c3cnc4ccc(-c5ccc6oc(N)nc6c5)cc4n3)C2)CC1
2. Nc1nc2cc(-c3ccc4ncc(N5CCNCC5=O)nc4c3)ccc2o1
3. Nc1nc2cc(-c3ccc4nc(N)sc4c3)ccc2o1

Resp:
["> 5.00", "> 5.00", "> 7.00"]
